- Assay protocol: StAR promoter reporter inhibitors, counter-screen for LRH-1 inverse agonist project, cell-based, luminescence, high throughput (AID 651611)
- Condition description: StAR promoter luciferase reporter counterscreen, at 3.6 µM, hits give high values
Parameter class (string): assigned from measured inhibition. Ranges: low value = under 10%, medium value = from 10% up to 20%, high value = 20% and over

[Q] Hi there! Could you help me figure out the category for CCN(CC)S(=O)(=O)c1cc(NC(=O)CNc2cccc(S(=O)(=O)N3CCCC3)c2)ccc1C please?
[A] high value

[Q] Hi there! Could you help me figure out the category for CC#CC[N+](C)(C)CCCCCCCCCCCC please?
[A] high value

[Q] Hi there! Could you help me figure out the category for CC(=O)N1CCc2c(sc(NC(=O)Cc3ccccc3)c2C#N)C1 please?
[A] medium value

[Q] Hi there! Could you help me figure out the category for O=C(COc1cccc2c1CCNC2=O)Nc1cccc(C(F)(F)F)c1 please?
[A] low value

[Q] Hi there! Could you help me figure out the category for O=C(C[C@H]1CC[C@@H]2[C@H](COC[C@H](O)CN2Cc2cccc(C(F)(F)F)c2)O1)NCCc1ccccc1 please?
[A] low value

[Q] Hi there! Could you help me figure out the category for O=C(CSc1nnc(Cn2nnc3ccccc32)o1)N(Cc1ccc(F)cc1)c1ccccc1 please?
[A] high value

[Q] Hi there! Could you help me figure out the category for CCOc1ccc(Br)cc1C1=NN(C(C)=O)C(c2ccc([N+](=O)[O-])s2)O1 (stereo not drawn) please?
[A] medium value

[Q] Hi there! Could you help me figure out the category for O=C(CN1C(=O)c2ccccc2S1(=O)=O)c1ccc2c(c1)OCCCO2 please?
[A] high value

[Q] Hi there! Could you help me figure out the category for COc1cc(/C=N/NC(N)=S)ccc1OCC(=O)Nc1ccc(C)cc1 please?
[A] low value

[Q] Hi there! Could you help me figure out the category for CCCCCCCn1ccc(=N)cc1 please?
[A] high value

[Q] Hi there! Could you help me figure out the category for Cc1ccc(-c2nc(NC(=O)c3nn(C)cc3[N+](=O)[O-])sc2C)cc1 please?
[A] medium value

[Q] Hi there! Could you help me figure out the category for CC1(C)Cc2c(sc3nc(SCC(=O)NCc4ccco4)n(-c4ccccc4)c(=O)c23)CS1 please?
[A] medium value

[Q] Hi there! Could you help me figure out the category for CCS(=O)(=O)N1Cc2cc(C(=O)NCC3CC3)nc(-c3cccc(-c4cccnc4)c3)c2[C@@H]1CCO please?
[A] low value

[Q] Hi there! Could you help me figure out the category for CCOCC(=O)Nc1ccc([N+](=O)[O-])cc1C please?
[A] low value

[Q] Hi there! Could you help me figure out the category for O=C(NCCc1ccccc1)c1ccc2c(c1)OCCO2 please?
[A] high value

[Q] Hi there! Could you help me figure out the category for Cc1cc(Br)ccc1NC(=O)CN1C(=O)CCC1=O please?
[A] low value

[Q] Hi there! Could you help me figure out the category for O=C(NNc1ccc([N+](=O)[O-])cc1[N+](=O)[O-])c1ccco1 please?
[A] medium value

[Q] Hi there! Could you help me figure out the category for C=CC(=O)Nc1ccc(Br)cc1 please?
[A] high value

[Q] Hi there! Could you help me figure out the category for Cc1cc2ncn(/N=C/c3ccc([N+](=O)[O-])o3)c2cc1C please?
[A] medium value

[Q] Hi there! Could you help me figure out the category for Cc1nn(C(C)(C)C)c(C)c1/C=N/OC(=O)Nc1ccc(Cl)cc1 please?
[A] high value

[Q] Hi there! Could you help me figure out the category for COc1cc(NS(C)(=O)=O)ccc1Nc1c2ccccc2nc2ccccc12 please?
[A] high value

[Q] Hi there! Could you help me figure out the category for Cc1sc2ncnc(NCC3COc4ccccc4O3)c2c1C (stereo not drawn) please?
[A] medium value

[Q] Hi there! Could you help me figure out the category for O=C(NC1CCCC(C(F)(F)F)C1)c1ccc([N+](=O)[O-])o1 (stereo not drawn) please?
[A] medium value

[Q] Hi there! Could you help me figure out the category for COc1ccc(S(=O)(=O)N2CCCN(CC(=O)Nc3ccc(OC)c(Cl)c3)CC2)cc1 please?
[A] medium value

[Q] Hi there! Could you help me figure out the category for CC(=O)COc1ccc2c(-c3cccc([N+](=O)[O-])c3)cc(=O)oc2c1 please?
[A] low value

[Q] Hi there! Could you help me figure out the category for CC(=O)N1CCN(c2ccc(NCc3ccc(C)cc3)cc2)CC1 please?
[A] low value

[Q] Hi there! Could you help me figure out the category for COc1ccc2nc(N3CCC(O)CC3)c(C#N)cc2c1 please?
[A] low value

[Q] Hi there! Could you help me figure out the category for COc1cccc(/C=N\NC(=O)c2ccc(Cn3cc(Br)c([N+](=O)[O-])n3)o2)c1O please?
[A] high value

[Q] Hi there! Could you help me figure out the category for Cn1c(=O)n(C)c2cc(NC(=O)CSc3nnc(-c4ccccc4O)n3-c3ccccc3)ccc21 please?
[A] high value

[Q] Hi there! Could you help me figure out the category for CC(=O)c1ccc(-c2c(C)cc3oc(=O)cc(-c4ccccc4)c3c2C)cc1 please?
[A] low value

[Q] Hi there! Could you help me figure out the category for COc1ccc(-n2c(/C=C(\C)O)nc(=O)c3c(C)cc(C)nc32)cc1 please?
[A] medium value

[Q] Hi there! Could you help me figure out the category for O=C(CC1CS(=O)(=O)CC1CC(=O)Nc1ccc2c(c1)OCCO2)Nc1ccc2c(c1)OCCO2 (stereo not drawn) please?
[A] low value

[Q] Hi there! Could you help me figure out the category for CC(=O)Nc1ccc2nc(NC(=O)c3ccc([N+](=O)[O-])o3)sc2c1 please?
[A] low value

[Q] Hi there! Could you help me figure out the category for O=C(Nc1ccc(Cc2ccncc2)cc1)c1ccc([N+](=O)[O-])o1 please?
[A] medium value

[Q] Hi there! Could you help me figure out the category for COc1ccc(-c2noc(CCCC(=O)NC3CCCC3)n2)cc1 please?
[A] medium value

[Q] Hi there! Could you help me figure out the category for Cc1nc2c(O)c3c(c(O)c2nc1C)C1C=CC3CC1 please?
[A] high value

[Q] Hi there! Could you help me figure out the category for COCc1cccc(-c2csc(C(C)(O)c3cccc(OC)c3)n2)c1 (stereo not drawn) please?
[A] low value

[Q] Hi there! Could you help me figure out the category for O=C(COc1ccc(S(=O)(=O)N2CCCC2)cc1Cl)NCc1ccc2c(c1)OCO2 please?
[A] high value

[Q] Hi there! Could you help me figure out the category for Cc1ccc(NC(=O)CSc2nnc([C@@H]3CCCN3C(=O)OC(C)(C)C)o2)c(C)c1 please?
[A] medium value

[Q] Hi there! Could you help me figure out the category for Cc1no[n+]([O-])c1COc1ccc(/C=N/n2nnnc2N)cc1 please?
[A] low value

[Q] Hi there! Could you help me figure out the category for CCCC(=O)NC(c1ccc(N(C)C)cc1)c1ccc2cccnc2c1O (stereo not drawn) please?
[A] high value

[Q] Hi there! Could you help me figure out the category for O=[N+]([O-])c1ccc(N2CCCCC2)cc1N1CCOCC1 please?
[A] medium value

[Q] Hi there! Could you help me figure out the category for Cc1nn(Cc2ccc(C(=O)Nc3nccs3)cc2)c(C)c1Cl please?
[A] high value
